What composite z-score was measured for each of the following?
# procedureSummary: probe aLAP1 signal on lysate-treated microarray – cell lysate, small-molecule microarray, COS7 lysate, primary screen (AID 1124);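 note: lysate comes from COS7 cells expressing LAP1 and is applied at 0.3 µg/mL; score merges spot fluorescence near 667 nm with signal-to-noise over triplicate slides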
# conditionLabel: probe aLAP1, fluorescence, higher = more signal
// no unit, no text: just the number

Item under review: `CCCC#C[Si](O[C@H](CC)c1cn([C@H](C)c2ccccc2)nn1)(C(C)C)C(C)C` . Reported composite z-score? -0.0249

Item under review: CC(CO)N1C(=O)[C@@H]2[C@H]3C(=O)OCC=C[C@H]3OC23C=CCN(Cn2nnc4ccccc42)C(=O)[C@@H]13 (stereo partly specified) . Reported composite z-score? -0.199

Item under review: CS(=O)(=O)CCOC(=O)C1=CC(c2ccc(CO)cc2)=CC(C2CC2)N(Cc2sc3ccccc3c2Cl)C=C1C(=O)OCCS(C)(=O)=O (stereo unspecified) . Reported composite z-score? 0.55

Item under review: `C#Cc1cc2ccccc2oc1=O` . Reported composite z-score? 0.216

Item under review: CC1CC/C=C\[C@H]2OC34C=CCN(C(C)C)C(=O)[C@H]3N(CCO)C(=O)[C@@H]4C2C(=O)O1 (stereo partly specified) . Reported composite z-score? 0.492

Item under review: O=C1C2C=CC(C(O)c3cccc(O)c3)N(Nc3ccc([N+](=O)[O-])cc3)C2C(=O)N1c1ccccc1 (stereo unspecified) . Reported composite z-score? 0.153

Item under review: `COCC(=C=CC[C@H](O)c1ccccc1OCCO)C[C@H](O)c1ccccn1` . Reported composite z-score? -0.144

Item under review: `CO[C@H]1O[C@H](CO)[C@@H](OC(=O)CCc2ccccc2)[C@@H]2OC(=O)[C@@H](Cc3ccccc3)C/C=C/C[C@H](Cc3ccccc3)C(=O)O[C@@H]12` . Reported composite z-score? 0.338

Item under review: `NCCCCCCNC(=O)[C@@H]1C[C@@H]2C(=O)N[C@@H](CCCCN)C(=O)N2[C@@H]1c1ccc(O)cc1` . Reported composite z-score? 1.18

Item under review: CCCC=C(CCC)[C@@H](NS(=O)(=O)CC12CCC(CC1=O)C2(C)C)c1ccc(C(=O)OC)cc1 (stereo partly specified) . Reported composite z-score? 0.154

Item under review: `COc1ccccc1CN1C(=O)c2ccccc2[C@](Cc2ccccc2I)(C(=O)O)[C@@H]1c1ccc(CO)cc1` . Reported composite z-score? 0.704

Item under review: `[N-]=[N+]=Nc1ccccc1C[C@]1(C(=O)N2CCOCC2)COC(c2ccc(OCCCO)cc2)=N1` . Reported composite z-score? -0.181

Item under review: C=CCC(OC(C)=O)[C@@H]1[C@@H](N(Cc2cc3ccccc3o2)C(=O)Cc2ccc(F)cc2)c2cc(OCCCO)ccc2N1C(=O)Cc1ccc2ccccc2c1 (stereo partly specified) . Reported composite z-score? -0.0657

Item under review: `CCOC(=O)C[C@H]1[C@H](OC(=O)Cc2ccc3c(c2)OCO3)[C@@H](NC(=O)C2CCCCC2)c2cc(OCCCO)ccc2N1C(=O)c1ccccc1` . Reported composite z-score? 0.124

Item under review: CC(C)(C)OC(=O)CC[C@@]1(C(=O)NCC(O)CO)N=C(c2ccc(OCCCO)cc2)O[C@@H]1c1ccccc1CN=[N+]=[N-] (stereo partly specified) . Reported composite z-score? 0.398

Item under review: `COC(=O)[C@@]1(Cc2ccc(F)cc2)[C@H]2c3cc(C(=O)N4CCCC4)n(Cc4ccc(C)c(F)c4F)c3C[C@H]2CN1C(=O)c1ccccc1` . Reported composite z-score? 1.14
